These data points were gathered from patent US20120040951A1.

- test-system: V599E Raf (Homo sapiens, UniProt P15056, V600E)
- Sequence (P15056 whole entry V600E): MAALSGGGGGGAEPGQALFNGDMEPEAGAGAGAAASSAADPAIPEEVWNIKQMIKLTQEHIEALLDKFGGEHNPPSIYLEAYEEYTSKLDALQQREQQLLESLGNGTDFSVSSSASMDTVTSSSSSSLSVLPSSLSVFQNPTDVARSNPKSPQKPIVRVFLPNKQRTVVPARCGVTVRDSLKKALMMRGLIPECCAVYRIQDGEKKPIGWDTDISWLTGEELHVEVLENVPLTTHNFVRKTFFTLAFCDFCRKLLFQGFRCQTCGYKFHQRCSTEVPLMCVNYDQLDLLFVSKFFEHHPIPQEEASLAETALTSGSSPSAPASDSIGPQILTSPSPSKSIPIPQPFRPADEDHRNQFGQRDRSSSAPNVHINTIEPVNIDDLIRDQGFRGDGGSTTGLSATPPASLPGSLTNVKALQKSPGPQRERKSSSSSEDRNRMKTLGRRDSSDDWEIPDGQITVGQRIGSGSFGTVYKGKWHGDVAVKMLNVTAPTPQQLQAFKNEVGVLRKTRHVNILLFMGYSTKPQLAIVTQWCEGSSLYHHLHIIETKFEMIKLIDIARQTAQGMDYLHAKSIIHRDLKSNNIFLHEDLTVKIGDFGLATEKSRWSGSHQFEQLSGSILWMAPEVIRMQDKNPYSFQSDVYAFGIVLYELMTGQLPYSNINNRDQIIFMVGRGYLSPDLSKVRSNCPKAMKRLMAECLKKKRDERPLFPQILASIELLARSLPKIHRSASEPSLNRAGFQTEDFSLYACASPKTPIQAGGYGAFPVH
- experimental-details: Biochemical FRET assay, mutant Raf (phosphorylation of MEK)
- particulars: 0.125 nM V599E Raf, 100 nM biotin-MEK, 25 μM ATP, read-out: Raf (mut) inhibition
quantity-measured: IC50

Look over these answered cases.
>  <molecule>
C[C@@H](NC(=O)c1cnn2ccccc12)c1ncc(C(=O)Nc2cc(C(F)(F)F)c(Cl)cn2)s1

>  <test-system>
V599E Raf (Homo sapiens, UniProt P15056, V600E)

>  <quantity-measured>
IC50

>  <experimental-result>
≤ 100 nM

$$$$
>  <molecule>
Cc1cn(-c2cncc(C(=O)NC(C)c3ncc(C(=O)Nc4cc(C(F)(F)F)c(Cl)cn4)s3)c2)cn1 (stereo not shown)

>  <test-system>
V599E Raf (Homo sapiens, UniProt P15056, V600E)

>  <quantity-measured>
IC50

>  <experimental-result>
100 to 1000 nM

$$$$
>  <molecule>
CC(NC(=O)c1cnn2ccccc12)c1ncc(C(=O)Nc2ccc(Cl)c(C(F)(F)F)c2)s1 (stereo not shown)

>  <test-system>
V599E Raf (Homo sapiens, UniProt P15056, V600E)

>  <quantity-measured>
IC50

>  <experimental-result>
100 to 1000 nM

$$$$
>  <molecule>
C[C@@H](NC(=O)c1cccc(N2CCOCC2)n1)c1ncc(C(=O)Nc2cc(C(F)(F)F)c(Cl)cn2)s1

>  <test-system>
V599E Raf (Homo sapiens, UniProt P15056, V600E)

>  <quantity-measured>
IC50

>  <experimental-result>
≤ 100 nM

$$$$
>  <molecule>
CNc1nc(C(C)(C)C)ncc1Nc1ncc(C(C)NC(=O)c2cc3c(cn2)ncn3C)s1 (stereo not shown)

>  <test-system>
V599E Raf (Homo sapiens, UniProt P15056, V600E)

>  <quantity-measured>
IC50

>  <experimental-result>
≤ 100 nM

$$$$

Query: Specify reported IC50 for the molecule shown: CC(NC(=O)c1cc2c(cn1)ncn2C)c1cnc(Nc2ccc(C(F)(F)F)cc2Cl)s1 (stereo not shown)
Response: ≤ 100 nM

Query: Supply IC50 value. Item: COC(=O)c1cc(Nc2ncc(C(C)NC(=O)c3cc4c(cn3)ncn4C)s2)cc(C(C)(C)C)c1 (stereo not shown)
Response: ≤ 100 nM
